Test system: C. albicans
# MIC annotations
Your answer is read as µg/mL, so omit the unit and give the number.

{"compound": "C[C@@H](n1cnc2cc(-c3ccc(C(=N)NCCN)cc3)sc2c1=O)[C@](O)(Cn1cncn1)c1ccc(F)cc1F [Example 70]", "MIC / µg/mL": 0.07}
{"compound": "CONC(=N)c1ccc(-c2cc3ncn([C@H](C)[C@](O)(Cn4cncn4)c4ccc(F)cc4F)c(=O)c3s2)cc1 [Example 67]", "MIC / µg/mL": 0.31}

Record request: MIC value, item C[C@@H](n1cnc2cc(Br)c(F)cc2c1=O)[C@](O)(Cn1cncn1)c1ccc(F)cc1F [Example 75] 0.15
